# EXPERIMENTAL TARGET: human Nav1.8 (Homo sapiens (Human), UniProt Q9Y5Y9)
# Sequence (Q9Y5Y9 whole entry): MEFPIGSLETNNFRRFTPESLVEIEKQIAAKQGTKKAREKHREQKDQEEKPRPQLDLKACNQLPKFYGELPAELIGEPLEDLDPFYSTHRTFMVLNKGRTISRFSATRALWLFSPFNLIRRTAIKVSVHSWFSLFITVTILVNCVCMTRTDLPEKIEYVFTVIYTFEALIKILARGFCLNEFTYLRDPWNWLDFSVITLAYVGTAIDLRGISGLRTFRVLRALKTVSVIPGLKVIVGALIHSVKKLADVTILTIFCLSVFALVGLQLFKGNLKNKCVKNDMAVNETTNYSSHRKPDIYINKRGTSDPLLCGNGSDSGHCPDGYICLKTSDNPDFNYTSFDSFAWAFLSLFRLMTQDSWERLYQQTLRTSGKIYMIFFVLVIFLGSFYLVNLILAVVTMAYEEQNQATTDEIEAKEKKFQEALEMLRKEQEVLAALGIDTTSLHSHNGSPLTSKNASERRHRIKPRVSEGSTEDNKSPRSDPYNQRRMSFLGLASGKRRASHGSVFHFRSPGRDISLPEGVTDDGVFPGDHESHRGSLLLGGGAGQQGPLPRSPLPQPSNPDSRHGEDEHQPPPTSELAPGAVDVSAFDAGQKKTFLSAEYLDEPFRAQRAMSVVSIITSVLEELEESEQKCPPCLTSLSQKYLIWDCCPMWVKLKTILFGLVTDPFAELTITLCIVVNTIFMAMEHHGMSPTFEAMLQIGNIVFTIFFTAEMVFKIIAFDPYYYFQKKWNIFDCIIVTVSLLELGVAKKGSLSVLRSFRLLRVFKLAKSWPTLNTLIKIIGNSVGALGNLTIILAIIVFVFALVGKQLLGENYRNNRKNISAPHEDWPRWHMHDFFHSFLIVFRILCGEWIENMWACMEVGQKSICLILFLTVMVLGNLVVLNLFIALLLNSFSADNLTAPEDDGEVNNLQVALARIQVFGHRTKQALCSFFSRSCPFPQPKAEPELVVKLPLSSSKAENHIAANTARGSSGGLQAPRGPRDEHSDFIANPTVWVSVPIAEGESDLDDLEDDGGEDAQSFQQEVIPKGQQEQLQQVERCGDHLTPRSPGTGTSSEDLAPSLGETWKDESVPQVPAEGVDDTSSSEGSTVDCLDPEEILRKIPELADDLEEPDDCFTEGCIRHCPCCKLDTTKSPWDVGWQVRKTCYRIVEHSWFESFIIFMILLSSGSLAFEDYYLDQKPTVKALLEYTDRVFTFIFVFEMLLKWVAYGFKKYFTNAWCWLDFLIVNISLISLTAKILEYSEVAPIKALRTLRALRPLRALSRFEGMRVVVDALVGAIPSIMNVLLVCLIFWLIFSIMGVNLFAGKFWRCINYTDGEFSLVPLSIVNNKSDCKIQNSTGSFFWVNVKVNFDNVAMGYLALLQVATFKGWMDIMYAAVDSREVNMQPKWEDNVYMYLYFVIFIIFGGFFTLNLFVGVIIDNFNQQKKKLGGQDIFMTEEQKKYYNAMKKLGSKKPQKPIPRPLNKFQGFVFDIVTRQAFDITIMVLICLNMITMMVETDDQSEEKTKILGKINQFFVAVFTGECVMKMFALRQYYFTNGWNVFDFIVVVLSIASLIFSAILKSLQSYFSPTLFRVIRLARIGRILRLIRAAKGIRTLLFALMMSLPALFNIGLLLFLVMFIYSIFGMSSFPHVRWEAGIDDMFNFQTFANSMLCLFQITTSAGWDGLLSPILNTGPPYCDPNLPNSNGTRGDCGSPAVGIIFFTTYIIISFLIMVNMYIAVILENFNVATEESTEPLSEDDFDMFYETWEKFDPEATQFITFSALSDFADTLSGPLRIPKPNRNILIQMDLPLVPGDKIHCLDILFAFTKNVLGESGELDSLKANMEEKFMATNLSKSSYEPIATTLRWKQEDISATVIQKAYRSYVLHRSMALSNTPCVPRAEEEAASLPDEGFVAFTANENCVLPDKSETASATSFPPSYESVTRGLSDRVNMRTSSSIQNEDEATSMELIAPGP
# METHOD: E-VIPR optical membrane potential assay with electrical stimulation
# PROTOCOL CONDITIONS: HEK cells expressing human Nav1.8
ASSAY ENDPOINT: IC50
Respond with a number, then the unit of measure.

# IC50 of `COc1ccc(Oc2ccc(C(F)(F)F)cc2C(=O)Nc2cccc(S(N)(=O)=O)c2)cc1` = 28 nM

`COc1cc(F)ccc1Oc1cc(C(F)(F)F)ccc1C(=O)Nc1cccc(S(N)(=O)=O)c1` yielded IC50 of 5 nM

For this compound ( `Cc1ccccc1Oc1cc(C(F)(F)F)ccc1C(=O)Nc1cccc(S(N)(=O)=O)c1` ), measured IC50 is 14 nM

Reported IC50 of `Cc1cc(C(=O)Nc2cccc(S(N)(=O)=O)c2)c(Oc2ccc(F)cc2)cc1Cl` : 12 nM
